Recorded values, source PubChem BioAssay (NCI).

# System: CAKI-1 renal
# experiment notes: NCI tumour cell line growth inhibition, 48 h
attribute measured: GI50

compound	GI50
c1cncc(-c2nc3ccccc3s2)c1	> 100000 nM

Suppose we examine the compound COc1cc(-c2csc(NC(=O)Nc3cc(C(F)(F)F)cc(C(F)(F)F)c3)n2)cc(OC)c1OC ; what GI50 value has been reported?
2880 nM

Dear colleague, I am looking for the recorded GI50 of the following compound: C[C@@H](NC(=O)[C@@H](CC(=O)N1CCC(N2CCCCC2)CC1)N1C(=O)[C@@H](N2C(=O)OC[C@@H]2c2ccccc2)[C@H]1/C=C/c1cccc(Cl)c1)c1ccccc1
1890 nM
